STUDY TARGET: SARS-CoV-2 spike protein S on live virus, Wuhan (strain SARS-CoV-2/Canada/VIDO-01/2020) (SARS-CoV-2 (Wuhan), UniProt P0DTC2 14-1273)
EXPERIMENT DESCRIPTION: cell-based or functional assay
MEASURE: MN100 (nM)
Numbers only here, please. The scale is nM.

BINDER: NRCoV2-02 VHH (VHH) VHH: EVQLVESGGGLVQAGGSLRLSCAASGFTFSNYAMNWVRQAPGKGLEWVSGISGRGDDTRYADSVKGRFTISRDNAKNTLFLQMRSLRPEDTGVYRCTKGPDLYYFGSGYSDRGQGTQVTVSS
MN100 / nM: 1.25

Consider the binder NRCoV2-07 VHH-Fc (Fc fusion, bivalent VHH-Fc) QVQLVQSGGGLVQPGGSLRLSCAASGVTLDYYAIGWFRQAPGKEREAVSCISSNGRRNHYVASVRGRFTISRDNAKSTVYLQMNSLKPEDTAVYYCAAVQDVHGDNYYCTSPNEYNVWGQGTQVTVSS and give its recorded MN100. 1.25
